System: Staphylococcus fleurettii
protocol text: Antibacterial activity against methicillin-resistant mecA-positive Staphylococcus fleurettii SFMP04 by agar dilution method
Format: functional
stated conditions: Mammaliicoccus fleurettii
assay endpoint: MIC (µg/mL)
All answers are understood in µg/mL, so give the number only.

Q: Give recorded MIC. CO[C@@]1(NC(=O)Cc2cccs2)C(=O)N2C(C(=O)O)=C(COC(N)=O)CS[C@@H]21 [CEFOXITIN]
Ans: 4

Q: Please indicate MIC recorded for CO/N=C(\C(=O)N[C@@H]1C(=O)N2C(C(=O)O)=C(CSc3nc(=O)c(O)nn3C)CS[C@H]12)c1csc(N)n1 [CEFTRIAXONE]
Ans: 64

Q: Give reported MIC value for CO/N=C(\C(=O)N[C@@H]1C(=O)N2C(C(=O)O)=CCS[C@H]12)c1csc(N)n1 [CEFTIZOXIME]
Ans: 64

Q: Given the compound Cc1onc(-c2ccccc2)c1C(=O)N[C@@H]1C(=O)N2[C@@H]1SC(C)(C)[C@@H]2C(=O)O [OXACILLIN] , write its reported MIC.
Ans: 128

Q: State, in one line, measured MIC of CC1(C)S[C@@H]2[C@H](NC(=O)[C@H](N)c3ccccc3)C(=O)N2[C@H]1C(=O)O [AMPICILLIN]
Ans: 1
